system: His-Tagged hOGA (human O-GlcNAcase) (Homo sapiens (Human))
Sequence (O60502 whole entry): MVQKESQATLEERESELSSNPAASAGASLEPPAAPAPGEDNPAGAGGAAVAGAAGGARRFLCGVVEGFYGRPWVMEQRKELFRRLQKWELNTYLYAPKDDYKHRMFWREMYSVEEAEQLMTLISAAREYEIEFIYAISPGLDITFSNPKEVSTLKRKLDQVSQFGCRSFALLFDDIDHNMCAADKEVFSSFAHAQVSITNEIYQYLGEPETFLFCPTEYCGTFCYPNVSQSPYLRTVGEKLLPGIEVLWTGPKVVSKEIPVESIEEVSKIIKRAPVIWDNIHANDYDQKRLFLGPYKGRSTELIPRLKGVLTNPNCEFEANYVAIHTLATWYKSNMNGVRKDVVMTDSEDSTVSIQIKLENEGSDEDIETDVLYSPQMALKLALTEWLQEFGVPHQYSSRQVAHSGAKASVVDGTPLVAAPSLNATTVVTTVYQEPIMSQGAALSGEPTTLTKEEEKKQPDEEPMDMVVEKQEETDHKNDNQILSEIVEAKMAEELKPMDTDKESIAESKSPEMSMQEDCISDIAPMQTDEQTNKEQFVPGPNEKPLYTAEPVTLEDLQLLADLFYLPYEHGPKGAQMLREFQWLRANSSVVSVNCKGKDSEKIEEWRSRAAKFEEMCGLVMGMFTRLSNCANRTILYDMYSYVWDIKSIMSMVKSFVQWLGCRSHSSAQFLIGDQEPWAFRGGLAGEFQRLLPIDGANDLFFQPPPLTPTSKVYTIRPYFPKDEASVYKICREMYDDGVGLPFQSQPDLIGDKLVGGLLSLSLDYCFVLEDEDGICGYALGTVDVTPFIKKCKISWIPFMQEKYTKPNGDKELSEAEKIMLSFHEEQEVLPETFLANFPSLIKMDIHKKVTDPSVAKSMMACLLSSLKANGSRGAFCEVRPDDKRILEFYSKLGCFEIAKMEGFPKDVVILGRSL
measurementProtocol: Human O-GlcNAcase enzyme inhibition assay (Example B01)
Format: biochemical
conditionSet: OGA enzyme inhibition assay; activity range classes defined in μM; read-out: OGA IC50
measuredParameter: IC50

For orientation, consider the following solved cases.
molecule="CC(c1ccc2nccnc2c1)N1CCN(c2nc3c(s2)C(=O)NCC3)CC1 (racemic)" assayvalue="0.2 to 1 µM"
molecule="CC(c1ccc2c(c1)OCO2)N1CCN(c2nc(C(F)(F)F)cs2)CC1 (racemic)" assayvalue="0.2 to 1 µM"
molecule=CNC(=O)c1ccc(N2CCN([C@@H](C)c3ccc4c(c3)OCO4)CC2)nc1 assayvalue="< 0.05 µM"
molecule="CC(=O)Nc1nnc(N2CCN(C(C)c3ccc4cccnc4c3)CC2)s1 (racemic)" assayvalue="0.05 to 0.2 µM"

Query: Data request, read-out IC50, for CC(=O)Nc1cnc(N2CCN(C(C)c3ccc4nonc4c3)CC2)nc1 (racemic)
Reply: 1 to 10 µM

Query: Data request, read-out IC50, for CC(c1ccc2c(c1)OCO2)N1CCN(c2nccs2)CC1 (racemic)
Reply: 0.2 to 1 µM

Query: Data request, read-out IC50, for CC(c1ccc2c(c1)OCO2)N1CCN(c2ncc3cc[nH]c3n2)CC1 (racemic)
Reply: 0.05 to 0.2 µM

Query: Data request, read-out IC50, for CC(c1ccc2c(c1)CCO2)N1CCN(c2ncccn2)CC1 (racemic)
Reply: 0.2 to 1 µM

Query: Data request, read-out IC50, for Cc1csc(C2CCN(C(C)c3ccc4c(c3)OCO4)CC2)n1 (racemic)
Reply: 0.2 to 1 µM

---

system: His-Tagged hOGA (human O-GlcNAcase) (Homo sapiens (Human))
measurementProtocol: Human O-GlcNAcase enzyme inhibition assay (Example B01)
Format: biochemical
conditionSet: OGA enzyme inhibition assay; activity range classes defined in μM; read-out: OGA IC50
Attribute: IC50

For orientation, consider the following solved cases.
molecule="CC(O)c1cnc(N2CCN([C@@H](C)c3ccc4c(c3)OCO4)CC2)nc1 (stereo partly shown) [Example 168]" measuredparameter=IC50 assayvalue="< 0.05 µM"
molecule="CC(c1ccc2c(c1)OCO2)N1CCN(c2ncc3ccccc3n2)CC1 (racemic)" measuredparameter=IC50 assayvalue="0.05 to 0.2 µM"
molecule=C[C@@H](c1ccc2c(c1)OCO2)N1CCN(c2ncc(C3(O)CCCC3)cn2)CC1 measuredparameter=IC50 assayvalue="< 0.05 µM"

Query: Data request, read-out IC50, for Cc1cnc(N2CCN(C(C)c3ccc4nccnc4c3)CC2)nc1 (racemic)
Reply: 0.05 to 0.2 µM
